# pIC50 values compiled below
Target: His-EBNA1 (DNA binding domain of EBNA1, amino acids 459-607) (Epstein-Barr virus)
Sequence (P03211 459-607): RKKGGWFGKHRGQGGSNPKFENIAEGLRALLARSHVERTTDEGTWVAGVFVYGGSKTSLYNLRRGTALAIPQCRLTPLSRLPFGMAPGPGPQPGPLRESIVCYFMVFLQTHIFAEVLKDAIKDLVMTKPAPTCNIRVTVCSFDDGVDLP
pIC50: −log10 of the molar value.
measurement name: pIC50

| substance smiles | measurement name | value observed |
| --- | --- | --- |
| CS(=O)(=O)Nc1cccc(CN2CCc3cc(C#Cc4cccc(C(=O)O)c4-c4ccc5cc[nH]c5c4)ccc3C2)c1 | pIC50 | 5.00 to 6.00 |
| Cc1nc2cc(-c3c(C#Cc4ccccc4)cccc3C(=O)O)ccc2s1 | pIC50 | 4.00 to 5.00 |
| CN(C)CCCn1cc(C#Cc2cccc(C(=O)O)c2-c2ccc3cc[nH]c3c2)c2cccnc21 | pIC50 | 3.00 to 4.00 |
| CN(C)CCCn1ccc2cc(C#Cc3cccc(C(=O)O)c3-c3ccc4cc[nH]c4c3)cnc21 | pIC50 | 4.00 to 5.00 |
| CS(=O)(=O)Nc1cccc(CN2CCc3ccc(C#Cc4cccc(C(=O)O)c4-c4ccc5cc[nH]c5c4)cc3C2)c1 | pIC50 | 5.00 to 6.00 |
| CC(C)N1CCN(Cc2ccc(C#Cc3cccc(C(=O)O)c3-c3ccc4cc[nH]c4c3)cc2)CC1 | pIC50 | 4.00 to 5.00 |
| CC(=O)Nc1cc(C#Cc2cccc(C(=O)O)c2-c2ccc3cc[nH]c3c2)ccc1OC1CCOCC1 | pIC50 | 4.00 to 5.00 |
| O=C(O)c1cccc(C#Cc2ccc(CN3CCN(C4CCCCC4)CC3)cc2)c1-c1ccc2cc[nH]c2c1 | pIC50 | 4.00 to 5.00 |
